# measured target: T1, recombinant human PD-1-his (Sino biological, #10377-H08H) (human, UniProt Q15116 25-167)
# T1 construct: Bought protein; also called Human PD-1-his protein; not shown: his tag
# T1 sequence (Q15116 25-167 limits assumed): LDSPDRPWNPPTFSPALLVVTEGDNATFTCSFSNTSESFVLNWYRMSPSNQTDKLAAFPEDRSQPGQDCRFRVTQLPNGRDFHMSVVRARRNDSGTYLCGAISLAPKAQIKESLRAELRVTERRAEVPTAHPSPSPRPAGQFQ
# experiment description: SPR (Biacore) as in Example 2
In this section we review reported pKd values for a set of binders.
pKd field: float, defined as -log10 of concentration (mol/L).

In: Need pKd, item humanized anti-PD-1 antibody huC1E1-V6 (antibody, human IgG1, kappa, V domains shown, Human IgG1/kappa, expressed in 293F cells) VH: EVQLVESGGGVVQPGRSLRLSCAASGFTFSSYLMSWVRQAPGKGLEWVATISGGGGDTYFPDSVKGRFTISRDNSKNTLYLQMNSLRAEDTAVYYCVRFGGAGYYWYFDVWGAGTLVTVSS VL: EIVLTQSPATLSLSPGERATLSCRASKSVDDSGISFMHWFQQKPGQPPRLLIYAASNQGSGVPARFSGSGSGTDFTLTISSLEPEDFAVYYCHQTKEVPWTFGQGTKVEIKR
Out: 8.52

In: Same read-out for humanized anti-PD-1 antibody huC1E1-V5 (antibody, human IgG1, kappa, V domains shown, Human IgG1/kappa, expressed in 293F cells) VH: EVQLVESGGGVVQPGRSLRLSCAASGFTFSSYLMSWVRQAPGKGLEWVATISGGGGDTYFPDSVKGRFTISRDNSKNTLYLQMNSLRAEDTAVYYCVRFGGAGYYWYFDVWGAGTLVTVSS VL: EIVLTQSPATLSLSPGERATLSCRASKSVDDSGISFMHWFQQKPGQPPRLLIYAASNQGSGIPARFSGSGSGTDFTLTISSLEPEDFAVYFCHQTKEVPWTFGQGTKVEIKR ?
Out: 8.47

In: Same read-out for humanized anti-PD-1 antibody huC1E1-V3 (antibody, human IgG1, kappa, V domains shown, Human IgG1/kappa, expressed in 293F cells) VH: EVQLVESGGGVVQPGRSLRLSCAASGFTFSSYLMSWVRQAPGKGLEWVATISGGGGDTYFPDSVKGRFTISRDNSKNTLYLQMNSLRAEDTAVYYCVRFGGAGYYWYFDVWGAGTLVTVSS VL: EIVLTQSPATLSLSPGERATLSCRASKSVDDSGISFMHWYQQKPGQPPRLLIYAASNQGSGVPARFSGSGSGTDFTLTISSLEPEDFAVYFCHQTKEVPWTFGQGTKVEIKR ?
Out: 8.34

In: Same read-out for humanized anti-PD-1 antibody huC1E1-V4 (antibody, human IgG1, kappa, V domains shown, Human IgG1/kappa, expressed in 293F cells) VH: EVQLVESGGGVVQPGRSLRLSCAASGFTFSSYLMSWVRQAPGKGLEWVATISGGGGDTYFPDSVKGRFTISRDNSKNTLYLQMNSLRAEDTAVYYCVRFGGAGYYWYFDVWGAGTLVTVSS VL: EIVLTQSPATLSLSPGERATLSCRASKSVDDSGISFMHWFQQKPGQAPRLLIYAASNQGSGVPARFSGSGSGTDFTLTISSLEPEDFAVYFCHQTKEVPWTFGQGTKVEIKR ?
Out: 8.53
